# TESTED SYSTEM: Cannabinoid receptor 1 (Homo sapiens)
# METHOD: Binding affinity to CB1 receptor
For each record, write down the corresponding Activity.
Numbers only, in nM.

CCCCC/C=C/c1cc(O)c2c(c1)OC(C)(C)[C@@H]1CC=C(C)C[C@@H]21	0.86
CCCCCC#Cc1cc(O)c2c(c1)OC(C)(C)[C@@H]1CC=C(C)C[C@@H]21	36
CCCCC/C=C/c1cc(F)c2c(c1)OC(C)(C)[C@@H]1CC=C(C)C[C@@H]21	285

We now examine a further molecule.
Any idea what Activity was measured for `CCCCCCCc1cc(F)c2c(c1)OC(C)(C)[C@@H]1CC=C(C)C[C@@H]21` ?
1560
